assay: Pharmacokinetics of STX243 in plasma (HPLC); format: in vivo, female Wistar rats; conditions: female, Wistar; Oral 40 mg kg^−1, rat plasma
Endpoint label: Cmax (ng/mL)
State just the number; it will be interpreted in ng/mL.

// query Cmax value for entry CCc1cc2c(cc1OS(N)(=O)=O)CCC1C2CC[C@@]2(C)C1CC[C@@H]2OS(N)(=O)=O (stereo partly shown) 1760

---

assay: Pharmacokinetics of STX243 in plasma (HPLC); assay type: in vivo, female Wistar rats; conditions: female, Wistar, rat, plasma; Intravenous 40 mg kg^−1; read-out: VD (volume of distribution)
Endpoint label: Vd (L/kg)
State just the number; it will be interpreted in L/kg.

// query Vd value for entry CCc1cc2c(cc1OS(N)(=O)=O)CCC1C2CC[C@@]2(C)C1CC[C@@H]2OS(N)(=O)=O (stereo partly shown) 1.41

Values from paper PMC2579677
